experiment: Cell Viability - H-4-II-E (AID 543); details: H-4-II-E rat hepatoma viability; series mostly up to 92.2 µM;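 also: cells exposed to compound for 40 hours; nearly all actives have a fitted effect of over 35% in size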
Results filed as inconclusive are left out. The source made the active and inactive calls. Calls follow the shape of the dose curve; as a rule, active = well fitted cell-killing curve with a large enough effect; inconclusive = small, poorly fitted or top-dose-only effect; inactive = flat fitted curve, though single readings scatter.
A correct response names exactly one class from active, inactive

In [3]: df
Out[3]:
                     chemical_string  label_value
0              COP(=O)(OC)OC=C(Cl)Cl     inactive
1             O=C(CCl)c1ccc(Cl)cc1Cl       active
2                Oc1c(Br)cc(Br)cc1Br     inactive
3  CCCCCCCCCCCC[N+](C)(C)CCOc1ccccc1       active

Attention now turns to another entry.
Returns: the outcome recorded for CN(C)C(=S)SSC(=S)N(C)C in this assay.
active

* * *

system: TAB109; assay: qHTS profiling for inhibitors of Plasmodium falciparum proliferation (AID 504749); also: nearly all actives have a fitted effect of over 60% in size; conditions: P. falciparum in erythrocytes, SYBR Green DNA, 72 h; series mostly up to 28.7 µM
Records with an inconclusive call do not appear. Calls of active or inactive are those of the source. The call rests on the fitted dose curve; in most records, active means well fitted inhibition curve with a large enough effect; inconclusive means small, poorly fitted or top-dose-only effect; inactive means flat fitted curve, though single readings scatter.
A correct response names exactly one class from 1 = active, 0 = inactive

See these solved cases before continuing.
>>> print(df.to_string())
                                   compound  label_value
0                     COP(=O)(OC)OC=C(Cl)Cl            0
1  COP(=O)(OC)C(O)C(Cl)(Cl)Cl (configuration not stated)            0
2    Cc1ncc2n1-c1ccc(Cl)cc1C(c1ccccc1F)=NC2            0
3  C[C@]12Cc3nonc3C[C@@H]1CC[C@@H]1[C@@H]2CC[C@@]2(C)[C@H]1CC[C@]2(C)O            0
4                       CC(C)(O)C(Cl)(Cl)Cl            1
5  CCOC(=O)NC(O)C(Cl)(Cl)Cl (configuration not stated)            0
6  COP(=S)(OC)Oc1ccc(Sc2ccc(OP(=S)(OC)OC)cc2)cc1            0
7  CC[C@]1(O)CC[C@H]2[C@@H]3CCC4=CCCC[C@@H]4[C@H]3CC[C@@]21C            0
8  CC(C)(C)OC(=O)c1ncn2c1[C@@H]1CCCN1C(=O)c1c(Br)cccc1-2            0
9      O=C(O)c1nn(Cc2ccc(Cl)cc2Cl)c2ccccc12            0

Returns: the outcome recorded for OC(O)C(Cl)(Cl)Cl in this assay.
0

Please give the result for CC(C)[N+](C)(CCC(C(N)=O)(c1ccccc1)c1ccccc1)C(C)C too.
0

* * *

details: Ebola virus entry assay, ratio channel
Calls of active or inactive are those of the source.
measurement.label: AC50

Known AC50 results, listed for orientation:
In [3]: df
Out[3]:
                                   compound  measurement_label            result
0  CC(COc1ccccc1)NC(C)C(O)c1ccc(O)cc1 (stereo unspecified)               AC50          inactive
1  CC[C@H](O)C(C[C@H](C)N(C)C)(c1ccccc1)c1ccccc1               AC50  8.91 µM (active)
2               Nc1ccc(Cl)cc1C(=O)c1ccccc1F               AC50          inactive
3    Clc1ccccc1C(c1ccccc1)(c1ccccc1)n1ccnc1               AC50          inactive
4  C[C@H]1COc2c(C3(N)CC3)c(F)cc3c(=O)c(C(=O)O)cn1c23               AC50          inactive

Turning now to a further compound:
Would you mind telling me what AC50 value was observed for CC(=O)/C=C/C=C1/C2CCC(C2)C1(C)C (stereo unspecified) ?
inactive

* * *

Item-by-item account of parasite growth remaining, % of DMSO control (lower = more inhibition)
assay: qHTS profiling of the MIPE4 collection as inhibitors of Plasmodium falciparum (DD2) proliferation (AID 743345); conditions: P. falciparum Dd2 in erythrocytes, SYBR Green DNA, 72 h; at 28.5 µM (top of the series)
Quick reminder: number only, in %, skip the unit.

Known parasite growth remaining, % of DMSO control (lower = more inhibition) results, listed for orientation:
                  chemical_string  number
0  C=CCc1cc(OC)c(O)c(C(=O)NCCO)c1    40.8
1             COC(=O)C1=CCCN(C)C1    98.7
2      COc1ccc(C(=O)N2CCCC2=O)cc1    19.7

Turning now to a further compound:
Would you mind telling me what parasite growth remaining, % of DMSO control (lower = more inhibition) value was observed for CCOC(=O)Nc1ccc(NCc2ccc(F)cc2)nc1N ?
90

* * *

assay: qHTS of pediatric cancer cell lines to identify multiple opportunities for drug repurposing: Primary screen for DAOY cells (AID 1347090); conditions: DAOY medulloblastoma viability, CellTiter-Glo luminescence, 48 h; series mostly up to 46 µM; also: nearly all actives have a fitted effect of over 55% in size
Records with an inconclusive call do not appear. Active and inactive are the calls of the source. Calls follow the shape of the dose curve; as a rule, active = well fitted cell-killing curve with a large enough effect; inconclusive = small, poorly fitted or top-dose-only effect; inactive = flat fitted curve, though single readings scatter.
A correct response names exactly one class from active, inactive

See these solved cases before continuing.
>>> df
                                   molecule  label_value
0  CC[n+]1c(-c2ccccc2)c2cc(N)ccc2c2ccc(N)cc21       active
1                  CCC1(CC)C(=O)NC(=O)NC1=O     inactive
2                       CC(C)(O)C(Cl)(Cl)Cl     inactive
3  C[N+]1(C)[C@@H]2CC[C@H]1CC(OC(=O)C(CO)c1ccccc1)C2 (stereo not given in full)     inactive

Returns: the outcome recorded for CC#C[C@]1(O)CC[C@H]2[C@@H]3C[C@H](C)C4=CC(=O)CC[C@]4(C)[C@H]3CC[C@@]21C in this assay.
inactive

Please give the result for CC(C)=CCN1CC[C@@]2(C)c3cc(O)ccc3C[C@@H]1[C@@H]2C too.
inactive

Please give the result for Cc1c(Cl)c(=O)oc2cc(OP(=O)(OCCCl)OCCCl)ccc12 too.
inactive

Please give the result for COc1ccc(OC)c(CC(C)N)c1 (stereo not given) too.
inactive

Please give the result for CCCC(C)C1(CC)C(=O)N=C(S)NC1=O (stereo not given) too.
inactive

Please give the result for CC(C)=C[C@@H]1[C@@H](C(=O)OCc2coc(Cc3ccccc3)c2)C1(C)C too.
inactive

Please give the result for CC(Cc1ccc2c(c1)OCO2)NO (stereo not given) too.
inactive

Please give the result for COc1cc(N)c(Cl)cc1C(=O)NC1CN2CCC1CC2 (stereo not given) too.
inactive

Please give the result for COC(=O)C1=CCCN(C)C1 too.
inactive

Please give the result for CCOC(=O)c1cncn1C(C)c1ccccc1 (stereo not given) too.
inactive

Please give the result for Cc1ncc2n1-c1ccc(Cl)cc1C(c1ccccc1F)=NC2 too.
inactive

Please give the result for CC(C)NCC(O)c1ccc(N)c(C#N)c1 (stereo not given) too.
inactive

Please give the result for CCCC[N+]1(C)[C@@H]2CC(OC(=O)[C@H](CO)c3ccccc3)C[C@H]1[C@@H]1O[C@@H]12 (stereo not given in full) too.
inactive

Please give the result for Sc1ccccc1Cl too.
inactive

Please give the result for COc1cc(C[C@@H](C)N)c(OC)cc1Br too.
inactive

Please give the result for C#C[C@]1(O)C=C[C@H]2[C@@H]3CCC4=CC(=O)CC[C@@H]4[C@H]3CC[C@@]21CC too.
inactive

Please give the result for c1cc2c(c(N3CCNCC3)c1)OCCO2 too.
inactive

Please give the result for CN(C)C(=S)SSC(=S)N(C)C too.
active

* * *

target: Alpha-galactosidase (Coffea arabica); experiment: Counterscreen for Glucocerebrosidase Inhibitors: qHTS Assay for Coffee Bean alpha-Galactosidase at pH 5.9 (AID 998); details: coffee bean alpha-galactosidase enzyme assay; series mostly up to 76.9 µM;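 also: plate controls were uninhibited enzyme for no effect and no-enzyme basal signal for full effect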
Active and inactive are the calls of the source. Calls come from the whole dose curve; as a rule, active = well fitted curve in the direction sought with a large enough effect; inactive = no such curve, though single readings can be large or run the other way.
measurement.label: outcome

Known outcome results, listed for orientation:
In [3]: df
Out[3]:
                                   compound  measurement_label    result
0         O=C(O)c1cccnc1Nc1cccc(C(F)(F)F)c1            outcome  inactive
1  CC1=C(C)C(=O)C(CCCCC#CCCCC#CCO)=C(C)C1=O            outcome  inactive
2  C[C@]12CC[C@@H]3c4ccc(O)cc4CC[C@H]3[C@@H]1CCC2=O            outcome  inactive
3  C=Cc1c(C)c2cc3[nH]c(cc4nc(cc5nc(cc1[nH]2)C(C)=C5CCC(=O)O)C(CCC(=O)O)=C4C)c(C)c3C=C            outcome  inactive
4  O=C1NCN(c2ccccc2)C12CCN(CCCC(c1ccc(F)cc1)c1ccc(F)cc1)CC2            outcome  inactive

Turning now to a further compound:
Would you mind telling me what outcome value was observed for C[N+](C)(C)CCOC(=O)CCC(=O)OCC[N+](C)(C)C ?
inactive
